system: HCT-116; test: NCI tumour cell line growth inhibition, 48 h
Activity calls are given as the source filed them. No stated cut-off is given here; in the data, active = GI50 up to about 1.1 µM and inactive = higher.
A correct response names exactly one class from active, inactive

INSERT INTO measurements (compound, measurementtarget, classname) VALUES
  ('CN1C(=O)C(C)(C)NS1(=O)=O', 'HCT-116', 'inactive');

Problem: Just curious, what result did CC1OC(CC2C=CCc3c(O)c4c(c(O)c32)C(=O)c2ccccc2C4=O)CC(NC(=O)C(F)(F)F)C1O (centres undefined) get here?
Result: inactive

Problem: Try the compound CCCCI(O)OS(=O)(=O)c1ccc(C)cc1
Result: inactive

Problem: Try the compound N=C(N)NCCCS(=O)(=O)Nc1ccc(Nc2c3ccccc3nc3cc([N+](=O)[O-])ccc23)cc1
Result: inactive

Problem: Try the compound COC1=CC(=O)c2c(cc(COP(=O)(OCC3OC(n4cc(F)c(=O)[nH]c4=O)CC3O)N(C)CCCCCl)n2C)C1=O (centres undefined)
Result: active

Problem: Try the compound CCOC(=O)C1=C(C)N(c2ccc(C)cc2)C2(O)C=CC(O)=C3C(=O)c4ccccc4C(=O)C312 (centres undefined)
Result: inactive

Problem: Try the compound O=C(c1ccccc1)c1ccc(-n2c3ccccc3c3ccc4c(c32)C(=O)C=CC4=O)cc1
Result: inactive

Problem: Try the compound C#C[C@]1(O)CC[C@H]2[C@@H]3CCC4=C/C(=N\OCCN5CCCC5)CC[C@]4(C)[C@H]3CC[C@@]21C
Result: inactive

Problem: Try the compound COc1ccc(/C=N/n2c(Cc3ccccc3)n[nH]c2=O)cc1
Result: inactive

* * *

system: SK-MEL-5; test: NCI tumour cell line growth inhibition, 48 h
Active and inactive are the calls of the source. No stated cut-off is given here; in the data, active = GI50 up to about 1.1 µM and inactive = higher.
Examples of molecules with documented GI50 follow.

Worked set:
INSERT INTO assay_data (molecule, val) VALUES
  ('CC(CCC[C@H](C)CO)[C@H]1[C@@H](O)C(O)C2[C@@H]3C[C@@H](O)C4(O)C[C@@H](O)CC[C@]4(C)C3CC[C@@]21C (stereo not given in full)', '> 100 µM (inactive)'),
  ('COc1ccc(/C=C/c2cc(=O)cc(/C=C/c3ccc(OC)c(O)c3)o2)cc1O', '1.88 µM (inactive)'),
  ('CCC12C=CCN3CCC4(C(=C(C(=O)OC)[C@@H]1O)Nc1ccccc14)C32 (stereo not given in full)', '1.79 µM (inactive)');

Problem: # GI50 lookup, item Clc1ccc2c(Cl)ncnc2c1I
Result: > 100 µM (inactive)

Problem: Try the molecule CC(O)C(NC(=O)c1ccccc1)C(=O)N(Cc1ccccc1)Cc1ccccc1 (stereo not given)
Result: 60 µM (inactive)

Problem: Try the molecule Cn1c2c3c(F)c(F)ccc3nc-2cc2ccccc21
Result: 3.04 µM (inactive)

Problem: Try the molecule N=C(N)NCCCS(=O)(=O)Nc1ccc(Nc2c3ccccc3nc3cc([N+](=O)[O-])ccc23)cc1
Result: 5.55 µM (inactive)

Problem: Try the molecule N#Cc1nc(-c2ccc(-c3nc(C#N)c(N)o3)cc2)oc1N
Result: > 10 µM (inactive)

Problem: Try the molecule CCOC(=O)C1(C/C=C\CBr)CCCC1=O (stereo not given)
Result: 26.7 µM (inactive)

Problem: Try the molecule COc1cc2ncnc(Nc3cccc(Br)c3)c2cc1OC
Result: 2.18 µM (inactive)
